Tested on: mRNA
Assay: mRNA capping rate by RNase H cleavage and LC-MS
Assay type: biochemical
Conditions: ratio of capped and uncapped mRNA
assay.readout: mRNA capping rates when using different Cap structures (%)

{"molecule": "CO[C@@H]1[C@H](O)[C@@H](COP(=O)(O)O[C@H]2[C@@H](OC)[C@H](n3cnc4c(=O)[nH]c(N)nc43)O[C@@H]2COP(=O)(O)OP(=O)(O)OP(=O)([O-])OC[C@H]2O[C@@H](n3c[n+](C)c4c(=O)[nH]c(N)nc43)[C@H](O)[C@@H]2O)O[C@H]1n1cnc2c(=O)[nH]c(N)nc21 [Cap analog 2, m7G(5′)ppp(5′)(2′OMeG)p(2′OMeG)]", "value.observed": 95.1}
{"molecule": "CO[C@@H]1[C@H](O)[C@@H](COP(=O)(O)O[C@H]2[C@@H](OC)[C@H](n3cnc4c(=O)[nH]c(N)nc43)O[C@@H]2COP(=O)(O)OP(=O)(O)OP(=O)([O-])OC[C@H]2O[C@@H](n3c[n+](C)c4c(=O)[nH]c(N)nc43)[C@H](O)[C@@H]2OC)O[C@H]1n1ccc(=O)[nH]c1=O [Cap analog 30, 3-O-Me-m7G(5′)ppp(5′)(2′OMeG)p(2′OMeU)]", "value.observed": 94.8}

---

Tested on: mRNA
Assay: mRNA capping rate by RNase H cleavage and LC-MS
Format: biochemical
Conditions: ratio of capped and uncapped mRNA
Listed below: mRNA capping rates when using different Cap structures values for each entry.
assay.readout: mRNA capping rates when using different Cap structures (%)

{"compound": "CO[C@@H]1[C@H](O)[C@@H](COP(=O)(O)O[C@H]2[C@@H](OC)[C@H](n3cnc4c(N)ncnc43)O[C@@H]2COP(=O)(O)OP(=O)(O)OP(=O)([O-])OC[C@H]2O[C@@H](n3c[n+](C)c4c(=O)[nH]c(N)nc43)[C@H](O)[C@@H]2OC)O[C@H]1n1cnc2c(N)ncnc21 [Cap analog 21, 3-O-Me-m7G(5′)ppp(5′)(2′OMeA)p(2′OMeA)]", "unit": "%", "value.observed": 94.55}
{"compound": "CO[C@@H]1[C@H](O)[C@@H](COP(=O)(O)O[C@H]2[C@@H](OC)[C@H](n3cnc4c(N)ncnc43)O[C@@H]2COP(=O)(O)OP(=O)(O)OP(=O)([O-])OC[C@H]2O[C@@H](n3c[n+](C)c4c(=O)[nH]c(N)nc43)[C@H](O)[C@@H]2OC)O[C@H]1n1cnc2c(=O)[nH]c(N)nc21 [Cap analog 17, 3-O-Me-m7G(5′)ppp(5′)(2′OMeA)p(2′OMeG)]", "unit": "%", "value.observed": 94.91}
{"compound": "CO[C@@H]1[C@H](O)[C@@H](COP(=O)(O)O[C@H]2[C@@H](OC)[C@H](n3ccc(=O)[nH]c3=O)O[C@@H]2COP(=O)(O)OP(=O)(O)OP(=O)([O-])OC[C@H]2O[C@@H](n3c[n+](C)c4c(=O)[nH]c(N)nc43)[C@H](O)[C@@H]2O)O[C@H]1n1ccc(=O)[nH]c1=O [Cap analog 16, m7G(5′)ppp(5′)(2′OMeU)p(2′OMeU)]", "unit": "%", "value.observed": 94.84}
{"compound": "CO[C@@H]1[C@H](O)[C@@H](COP(=O)(O)O[C@H]2[C@@H](OC)[C@H](n3ccc(N)nc3=O)O[C@@H]2COP(=O)(O)OP(=O)(O)OP(=O)([O-])OC[C@H]2O[C@@H](n3c[n+](C)c4c(=O)[nH]c(N)nc43)[C@H](O)[C@@H]2OC)O[C@H]1n1ccc(N)nc1=O [Cap analog 27, 3-O-Me-m7G(5′)ppp(5′)(2′OMeC)p(2′OMeC)]", "unit": "%", "value.observed": 94.88}
{"compound": "CO[C@@H]1[C@H](O)[C@@H](COP(=O)(O)O[C@H]2[C@@H](OC)[C@H](n3cnc4c(=O)[nH]c(N)nc43)O[C@@H]2COP(=O)(O)OP(=O)(O)OP(=O)([O-])OC[C@H]2O[C@@H](n3c[n+](C)c4c(=O)[nH]c(N)nc43)[C@H](O)[C@@H]2O)O[C@H]1n1cnc2c(N)ncnc21 [Cap analog 6, m7G(5′)ppp(5′)(2′OMeG)p(2′OMeA)]", "unit": "%", "value.observed": 94.65}
{"compound": "CO[C@@H]1[C@H](OP(=O)(O)OC[C@H]2O[C@@H](n3cnc4c(=O)[nH]c(N)nc43)[C@H](OC)[C@@H]2O)[C@@H](COP(=O)(O)OP(=O)(O)OP(=O)([O-])OC[C@H]2O[C@@H](n3c[n+](C)c4c(=O)[nH]c(N)nc43)[C@H](O)[C@@H]2O)O[C@H]1n1ccc(=O)[nH]c1=O [Cap analog 4, m7G(5′)ppp(5′)(2′OMeU)p(2′OMeG)]", "unit": "%", "value.observed": 94.72}
{"compound": "CO[C@@H]1[C@H](OP(=O)(O)OC[C@H]2O[C@@H](n3cnc4c(N)ncnc43)[C@H](OC)[C@@H]2O)[C@@H](COP(=O)(O)OP(=O)(O)OP(=O)([O-])OC[C@H]2O[C@@H](n3c[n+](C)c4c(=O)[nH]c(N)nc43)[C@H](O)[C@@H]2O)O[C@H]1n1ccc(N)nc1=O [Cap analog 7, m7G(5′)ppp(5′)(2′OMeC)p(2′OMeA)]", "unit": "%", "value.observed": 94.76}
{"compound": "CO[C@@H]1[C@H](O)[C@@H](COP(=O)(O)O[C@H]2[C@@H](OC)[C@H](n3cnc4c(=O)[nH]c(N)nc43)O[C@@H]2COP(=O)(O)OP(=O)(O)OP(=O)([O-])OC[C@H]2O[C@@H](n3c[n+](C)c4c(=O)[nH]c(N)nc43)[C@H](O)[C@@H]2OC)O[C@H]1n1cnc2c(N)ncnc21 [Cap analog 22, 3-O-Me-m7G(5′)ppp(5′)(2′OMeG)p(2′OMeA)]", "unit": "%", "value.observed": 94.83}
{"compound": "CO[C@@H]1[C@H](O)[C@@H](COP(=O)(O)O[C@H]2[C@@H](OC)[C@H](n3cnc4c(N)ncnc43)O[C@@H]2COP(=O)(O)OP(=O)(O)OP(=O)([O-])OC[C@H]2O[C@@H](n3c[n+](C)c4c(=O)[nH]c(N)nc43)[C@H](O)[C@@H]2O)O[C@H]1n1ccc(N)nc1=O [Cap analog 9, m7G(5′)ppp(5′)(2′OMeA)p(2′OMeC)]", "unit": "%", "value.observed": 94.73}
{"compound": "CO[C@@H]1[C@H](OP(=O)(O)OC[C@H]2O[C@@H](n3cnc4c(N)ncnc43)[C@H](OC)[C@@H]2O)[C@@H](COP(=O)(O)OP(=O)(O)OP(=O)([O-])OC[C@H]2O[C@@H](n3c[n+](C)c4c(=O)[nH]c(N)nc43)[C@H](O)[C@@H]2O)O[C@H]1n1ccc(=O)[nH]c1=O [Cap analog 8, m7G(5′)ppp(5′)(2′OMeU)p(2′OMeA)]", "unit": "%", "value.observed": 94.79}
{"compound": "CO[C@@H]1[C@H](O)[C@@H](COP(=O)(O)O[C@H]2[C@@H](OC)[C@H](n3ccc(=O)[nH]c3=O)O[C@@H]2COP(=O)(O)OP(=O)(O)OP(=O)([O-])OC[C@H]2O[C@@H](n3c[n+](C)c4c(=O)[nH]c(N)nc43)[C@H](O)[C@@H]2O)O[C@H]1n1ccc(N)nc1=O [Cap analog 12, m7G(5′)ppp(5′)(2′OMeU)p(2′OMeC)]", "unit": "%", "value.observed": 94.86}

---

Target: T7 Enzyme Mix (Escherichia phage T7, UniProt P00573)
Sequence (P00573 whole entry): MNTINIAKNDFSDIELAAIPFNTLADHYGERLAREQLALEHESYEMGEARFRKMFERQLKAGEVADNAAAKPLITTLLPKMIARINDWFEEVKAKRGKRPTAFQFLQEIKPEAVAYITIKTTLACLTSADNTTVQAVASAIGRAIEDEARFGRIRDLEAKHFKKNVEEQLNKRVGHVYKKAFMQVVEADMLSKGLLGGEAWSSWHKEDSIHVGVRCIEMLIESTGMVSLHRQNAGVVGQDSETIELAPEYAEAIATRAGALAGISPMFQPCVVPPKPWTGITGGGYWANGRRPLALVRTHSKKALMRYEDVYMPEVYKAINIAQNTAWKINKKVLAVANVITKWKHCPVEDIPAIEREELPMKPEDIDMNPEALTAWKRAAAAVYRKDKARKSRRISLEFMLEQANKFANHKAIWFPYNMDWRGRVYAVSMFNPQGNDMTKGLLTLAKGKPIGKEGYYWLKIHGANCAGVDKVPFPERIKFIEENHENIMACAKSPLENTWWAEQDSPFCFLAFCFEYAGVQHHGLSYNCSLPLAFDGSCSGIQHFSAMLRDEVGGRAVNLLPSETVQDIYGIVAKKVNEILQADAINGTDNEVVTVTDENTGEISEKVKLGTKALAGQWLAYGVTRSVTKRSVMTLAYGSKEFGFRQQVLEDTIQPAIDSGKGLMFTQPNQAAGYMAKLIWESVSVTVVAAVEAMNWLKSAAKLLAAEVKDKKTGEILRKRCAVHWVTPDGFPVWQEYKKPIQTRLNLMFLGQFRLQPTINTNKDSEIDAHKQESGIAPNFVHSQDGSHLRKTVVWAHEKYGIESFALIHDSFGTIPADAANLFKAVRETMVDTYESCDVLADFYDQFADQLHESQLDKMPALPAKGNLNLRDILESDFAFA
Assay: In vitro transcription mRNA synthesis with cap analog, reaction yield
Assay type: biochemical
Conditions: per ml transcription reaction system; 37° C. for 6 h; LiCl purification
Listed below: Mass of final product obtained from 1 ml mRNA synthesis reaction system values for each entry.
assay.readout: Mass of final product obtained from 1 ml mRNA synthesis reaction system (mg)

{"mol.smiles": "CO[C@@H]1[C@H](OP(=O)(O)OC[C@H]2O[C@@H](n3cnc4c(=O)[nH]c(N)nc43)[C@H](OC)[C@@H]2O)[C@@H](COP(=O)(O)OP(=O)(O)OP(=O)([O-])OC[C@H]2O[C@@H](n3c[n+](C)c4c(=O)[nH]c(N)nc43)[C@H](O)[C@@H]2O)O[C@H]1n1ccc(N)nc1=O", "unit": "mg", "value.observed": 5.8}
{"mol.smiles": "CO[C@@H]1[C@H](OP(=O)(O)OC[C@H]2O[C@@H](n3cnc4c(N)ncnc43)[C@H](OC)[C@@H]2O)[C@@H](COP(=O)(O)OP(=O)(O)OP(=O)([O-])OC[C@H]2O[C@@H](n3c[n+](C)c4c(=O)[nH]c(N)nc43)[C@H](O)[C@@H]2O)O[C@H]1n1ccc(=O)[nH]c1=O", "unit": "mg", "value.observed": 5.3}
{"mol.smiles": "CO[C@@H]1[C@H](O)[C@@H](COP(=O)(O)O[C@H]2[C@@H](OC)[C@H](n3cnc4c(=O)[nH]c(N)nc43)O[C@@H]2COP(=O)(O)OP(=O)(O)OP(=O)([O-])OC[C@H]2O[C@@H](n3c[n+](C)c4c(=O)[nH]c(N)nc43)[C@H](O)[C@@H]2O)O[C@H]1n1ccc(=O)[nH]c1=O", "unit": "mg", "value.observed": 5.5}
{"mol.smiles": "CO[C@@H]1[C@H](O)[C@@H](COP(=O)(O)O[C@H]2[C@@H](OC)[C@H](n3cnc4c(=O)[nH]c(N)nc43)O[C@@H]2COP(=O)(O)OP(=O)(O)OP(=O)([O-])OC[C@H]2O[C@@H](n3c[n+](C)c4c(=O)[nH]c(N)nc43)[C@H](O)[C@@H]2O)O[C@H]1n1cnc2c(N)ncnc21", "unit": "mg", "value.observed": 5.1}
{"mol.smiles": "CO[C@@H]1[C@H](O)[C@@H](COP(=O)(O)O[C@H]2[C@@H](OC)[C@H](n3ccc(N)nc3=O)O[C@@H]2COP(=O)(O)OP(=O)(O)OP(=O)([O-])OC[C@H]2O[C@@H](n3c[n+](C)c4c(=O)[nH]c(N)nc43)[C@H](O)[C@@H]2OC)O[C@H]1n1ccc(N)nc1=O", "unit": "mg", "value.observed": 4.7}
{"mol.smiles": "CO[C@@H]1[C@H](OP(=O)(O)OC[C@H]2O[C@@H](n3cnc4c(=O)[nH]c(N)nc43)[C@H](OC)[C@@H]2O)[C@@H](COP(=O)(O)OP(=O)(O)OP(=O)([O-])OC[C@H]2O[C@@H](n3c[n+](C)c4c(=O)[nH]c(N)nc43)[C@H](O)[C@@H]2OC)O[C@H]1n1ccc(N)nc1=O", "unit": "mg", "value.observed": 4.4}
